System: thoracic aortae of TRPV2−/− mice
assay notes: Vascular smooth muscle reactivity in isolated aorta (DMT myograph), TRPV2 knockout
Design: species or system mouse
test context: Mus musculus, intact endothelium (+E), phenylephrine pre-contracted; read-out: EC50 for the relaxing effect
measure: pEC50
pEC50 here is simply -log10 of the concentration when that concentration is written in mol/L.

Quick one: pEC50 for CCCN(CCC)S(=O)(=O)c1ccc(C(=O)O)cc1 [probenecid] ?
3.28

----------
System: thoracic aortae of wild type mice
assay notes: Vascular smooth muscle reactivity in isolated aorta (DMT myograph), wild type
Set-up: species or system mouse
test context: Mus musculus, without endothelium (−E), phenylephrine pre-contracted; read-out: EC50 for the relaxing effect
measure: EC50 (mM)
Report only the number, with the unit mM understood.

Quick one: EC50 for CCCN(CCC)S(=O)(=O)c1ccc(C(=O)O)cc1 [probenecid] ?
4.56
